Target: Estrogen receptor (Homo sapiens, UniProt P03372)
Test: Agonist activity at ERalpha (unknown origin) expressed in human HepG2 cells assessed as transcriptional activation after 24 hrs by ERE-luciferase reporter gene assay
Mark True for EC50 under 5 nM, False if at or over.

Example cases with answers are listed next.
chemical_smiles=Oc1ccc(/C(=N\c2ccc(Cl)cc2)c2ccc(O)cc2O)cc1 label_value=True
chemical_smiles=Oc1ccc(C(=Nc2ccc(Cl)cc2)c2ccc(O)cc2)cc1 label_value=True
chemical_smiles=Oc1ccc(/C(=N\c2cccc(C(F)(F)F)c2)c2ccc(O)cc2O)cc1 label_value=False
chemical_smiles=Oc1ccc(/C(=N\c2ccc(Br)cc2)c2ccc(O)cc2O)cc1 label_value=False
chemical_smiles=Oc1ccc(N=C(c2ccc(O)cc2)c2ccc(O)cc2)cc1 label_value=False
chemical_smiles=Oc1ccc(/C(=N\c2ccccc2Cl)c2ccc(O)cc2O)cc1 label_value=True

[ask] Could you please tell me whether EC50 recorded for `Oc1ccc(C(=Nc2ccc(F)cc2)c2ccc(O)cc2)cc1` is less than 5 nM?
[reply] True

----------
Answer each item with its documented RBA.
Target: Estrogen receptor beta (Homo sapiens, UniProt Q92731)
Sequence (Q92731 whole entry): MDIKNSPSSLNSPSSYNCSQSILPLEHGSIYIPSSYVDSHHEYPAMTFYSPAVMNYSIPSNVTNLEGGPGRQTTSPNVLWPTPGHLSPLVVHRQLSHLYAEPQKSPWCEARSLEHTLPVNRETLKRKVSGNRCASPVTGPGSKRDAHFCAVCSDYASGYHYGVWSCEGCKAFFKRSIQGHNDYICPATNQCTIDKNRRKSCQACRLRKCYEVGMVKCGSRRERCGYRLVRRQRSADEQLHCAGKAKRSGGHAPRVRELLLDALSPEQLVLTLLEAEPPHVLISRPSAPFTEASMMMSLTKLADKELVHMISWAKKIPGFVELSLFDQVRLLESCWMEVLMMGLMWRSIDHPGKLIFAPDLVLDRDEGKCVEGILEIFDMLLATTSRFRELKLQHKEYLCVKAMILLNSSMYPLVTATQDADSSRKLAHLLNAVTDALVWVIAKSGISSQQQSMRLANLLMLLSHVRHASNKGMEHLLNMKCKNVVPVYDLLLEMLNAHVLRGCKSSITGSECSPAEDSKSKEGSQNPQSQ
Test: Displacement of [3H]-estradiol from human full-length ERbeta after 18 to 24 hrs by competitive radiometric binding assay relative to estradiol
I'd appreciate it if you wrote the number followed by its unit.

chemical_smiles=Oc1ccc(C(=Nc2ccccc2)c2ccc(O)cc2)cc1 target_system="Estrogen receptor beta (Homo sapiens, UniProt Q92731)" parameter=RBA recorded_result=31.5%
chemical_smiles=Oc1ccc(/C(=N\c2ccccc2Cl)c2ccc(O)cc2O)cc1 target_system="Estrogen receptor beta (Homo sapiens, UniProt Q92731)" parameter=RBA recorded_result=77.9%
chemical_smiles=Oc1ccc(/C(=N\c2ccc(Cl)cc2)c2ccc(O)cc2O)cc1 target_system="Estrogen receptor beta (Homo sapiens, UniProt Q92731)" parameter=RBA recorded_result=38.1%

Now examine the next entry.
[ask] Hi! What's the reported RBA for `Oc1ccc(N=C(c2ccc(O)cc2)c2ccc(O)cc2)cc1` on Estrogen receptor beta (Homo sapiens, UniProt Q92731)?
[reply] 0.99%

----------
Target: Estrogen receptor beta (Homo sapiens, UniProt Q92731)
Test: Agonist activity at ERbeta (unknown origin) expressed in human HepG2 cells assessed as transcriptional activation after 24 hrs by ERE-luciferase reporter gene assay relative to 17beta-estradiol
Assay type: cell-based
Answer each item with its documented Efficacy.
I'd appreciate it if you wrote the number followed by its unit.

Recorded Efficacy, per entry:
chemical_smiles=Oc1ccc(/C(=N\c2ccccc2)c2ccc(O)cc2O)cc1 parameter=Efficacy recorded_result=25%
chemical_smiles=COc1ccc(/N=C(\c2ccc(O)cc2)c2ccc(O)cc2O)cc1 parameter=Efficacy recorded_result=38%
chemical_smiles=Cc1ccccc1/N=C(\c1ccc(O)cc1)c1ccc(O)cc1O parameter=Efficacy recorded_result=31%

[ask] Consider the compound shown here: `Oc1ccc(C(=Nc2ccccc2Cl)c2ccc(O)cc2)cc1` What is its recorded Efficacy?
[reply] 37%

----------
Target: Estrogen receptor (Homo sapiens) (UniProt P03372)
Sequence (whole entry): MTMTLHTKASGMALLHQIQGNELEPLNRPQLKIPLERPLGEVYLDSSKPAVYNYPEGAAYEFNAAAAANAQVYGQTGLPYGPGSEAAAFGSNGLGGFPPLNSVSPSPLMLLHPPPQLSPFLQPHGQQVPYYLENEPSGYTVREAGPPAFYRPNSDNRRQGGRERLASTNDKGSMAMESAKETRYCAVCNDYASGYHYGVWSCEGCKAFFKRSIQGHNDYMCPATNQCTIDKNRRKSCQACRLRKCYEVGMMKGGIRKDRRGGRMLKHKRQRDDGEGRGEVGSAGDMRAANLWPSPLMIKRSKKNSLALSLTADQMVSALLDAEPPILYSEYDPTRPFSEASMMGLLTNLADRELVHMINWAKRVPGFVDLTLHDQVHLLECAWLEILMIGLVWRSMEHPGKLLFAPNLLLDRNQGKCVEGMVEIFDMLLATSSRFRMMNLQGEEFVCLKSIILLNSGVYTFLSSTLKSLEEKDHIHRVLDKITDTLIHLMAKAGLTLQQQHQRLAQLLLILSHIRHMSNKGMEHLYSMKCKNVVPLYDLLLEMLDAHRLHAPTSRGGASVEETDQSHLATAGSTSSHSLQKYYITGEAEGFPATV
Assay: Antagonist activity at ERalpha (unknown origin) expressed in human HepG2 cells assessed as inhibition of transcriptional activation after 24 hrs by ERE-luciferase reporter gene assay relative to 17beta-estradiol
Format: cell-based
Answer each item with its documented Efficacy.
One number for each entry, in %.

Recorded Efficacy, per entry:
chemical_smiles=Oc1ccc(C(=Nc2ccc(F)cc2)c2ccc(O)cc2)cc1 units=% recorded_result=113
chemical_smiles=Oc1ccc(/C(=N\c2ccccc2Cl)c2ccc(O)cc2O)cc1 units=% recorded_result=136
chemical_smiles=Oc1ccc(N=C(c2ccc(O)cc2)c2ccc(O)cc2)cc1 units=% recorded_result=111
chemical_smiles=Oc1ccc(/C(=N\c2cccc(C(F)(F)F)c2)c2ccc(O)cc2O)cc1 units=% recorded_result=95
chemical_smiles=Oc1ccc(/N=C(\c2ccc(O)cc2)c2ccc(O)cc2O)cc1 units=% recorded_result=108

List Efficacy for every entry below, keeping the order given.
1. Oc1ccc(/C(=N\c2ccc(Br)cc2)c2ccc(O)cc2O)cc1
2. Cc1ccc(/N=C(\c2ccc(O)cc2)c2ccc(O)cc2O)cc1

[reply]
1. 111
2. 122

[ask] Consider the compound shown here: `COc1ccc(/N=C(\c2ccc(O)cc2)c2ccc(O)cc2O)cc1` What is its recorded Efficacy?
[reply] 102

----------
Answer each item with its documented Selectivity ratio.
Organism: Homo sapiens
Assay: Selectivity ratio of RBA for human full length ERbeta to RBA for human full-length ERalpha
Give bare numbers.

Recorded Selectivity ratio, per entry:
chemical_smiles=Cc1cccc(N=C(c2ccc(O)cc2)c2ccc(O)cc2)c1 recorded_result=5.2
chemical_smiles=Cc1ccccc1/N=C(\c1ccc(O)cc1)c1ccc(O)cc1O recorded_result=0.9
chemical_smiles=Oc1ccc(C(=Nc2ccc(Br)cc2)c2ccc(O)cc2)cc1 recorded_result=2.3
chemical_smiles=Oc1ccc(C(=Nc2ccccc2)c2ccc(O)cc2)cc1 recorded_result=2.2
chemical_smiles=Oc1ccc(/C(=N\c2ccc(Br)cc2)c2ccc(O)cc2O)cc1 recorded_result=1.1
chemical_smiles=Oc1ccc(/C(=N\c2ccccc2Cl)c2ccc(O)cc2O)cc1 recorded_result=0.8
chemical_smiles=Oc1ccc(/C(=N\c2cccc(C(F)(F)F)c2)c2ccc(O)cc2O)cc1 recorded_result=2.6
chemical_smiles=COc1ccc(/N=C(\c2ccc(O)cc2)c2ccc(O)cc2O)cc1 recorded_result=0.5
chemical_smiles=Oc1ccc(/C(=N\c2ccccc2)c2ccc(O)cc2O)cc1 recorded_result=1.3
chemical_smiles=Oc1ccc(C(=Nc2ccc(F)cc2)c2ccc(O)cc2)cc1 recorded_result=2.3

List Selectivity ratio for every entry below, keeping the order given.
1. COc1ccc(/N=C(\c2ccccc2)c2ccc(O)cc2O)cc1
2. Oc1ccc(/C(=N\c2ccc(F)cc2)c2ccc(O)cc2O)cc1
3. Oc1ccc(/N=C(\c2ccc(O)cc2)c2ccc(O)cc2O)cc1
4. Cc1cccc(/N=C(\c2ccc(O)cc2)c2ccc(O)cc2O)c1
5. COc1ccc(/C(=N\c2ccc(O)cc2)c2ccc(O)cc2O)cc1
6. Cc1ccc(/N=C(\c2ccc(O)cc2)c2ccc(O)cc2O)cc1

[reply]
1. 0.49
2. 1.3
3. 0.5
4. 2.5
5. 3.2
6. 1.9

List Selectivity ratio for every entry below, keeping the order given.
1. Cc1cccc(C)c1N=C(c1ccc(O)cc1)c1ccc(O)cc1
2. Oc1ccc(C(=Nc2ccc(Cl)cc2)c2ccc(O)cc2)cc1

[reply]
[1.9, 2.6]
